folding stability dG for assorted variants
B1: r16_88_TrROS_Hall (parent)
chain: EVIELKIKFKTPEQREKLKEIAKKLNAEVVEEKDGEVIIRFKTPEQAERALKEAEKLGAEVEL

Variants of: B1
Assay: folding stability dG (cDNA display proteolysis); higher = more stable
Conditions: PBS, room temperature
The reply should be a number in kcal/mol, with the unit left off.

Answered cases to consult:
{"construct.sequence": "EVIELKIKFKTPEQREKLKEIAKKLNAEVVEEKDGEVIIRFMTPEQAERALKEAEKLGAEVEL [K42M]", "result.units": "kcal/mol", "numeric.result": 4.18}
{"construct.sequence": "EVIELKIKFKWPEQREKLKEIAKKLNAEVVEEKDGEVIIRFKTPEQAERALKEAEKLGAEVEL [T11W]", "result.units": "kcal/mol", "numeric.result": 4.6}
{"construct.sequence": "EVIELKIGFKTPEQREKLKEIAKKLNAEVVEEKDGEVIIRFKTPEQAERALKEAEKLGAEVEL [K8G]", "result.units": "kcal/mol", "numeric.result": 4.05}
{"construct.sequence": "EVIELKIKFKTPEQREKLKEIAKKLNAEVVEEKDGEVIIRGKTPEQAERALKEAEKLGAEVEL [F41G]", "result.units": "kcal/mol", "numeric.result": 3.01}
{"construct.sequence": "EVIELKIKFKTPEHREKLKEIAKKLNAEVVEEKDGEVIIRFKTPEQAERALKEAEKLGAEVEL [Q14H]", "result.units": "kcal/mol", "numeric.result": 4.2}

Asked: // lookup folding stability dG for EVIELKIKFKTPEQREKLKEIAKKLNAEVVEEKDGEVIIRFKTPEQAERYLKEAEKLGAEVEL [A50Y]
Given back: 4.43

Asked: // same read-out, input: EVIELKIKFKTPEQREKLKEIAKKLNAEVVEEKQGEVIIRFKTPEQAERALKEAEKLGAEVEL [D34Q]
Given back: 4.35

Asked: // same read-out, input: EVIELKIKFKTPEQREKLKEIAKKLNAEVVEEKDGEVIIRCKTPEQAERALKEAEKLGAEVEL [F41C]
Given back: 4.28

Asked: // same read-out, input: EVIELKIKFKTPEQREKLKEIDKKLNAEVVEEKDGEVIIRFKTPEQAERALKEAEKLGAEVEL [A22D]
Given back: 2.91

Asked: // same read-out, input: EVIELKIKFKTPEQREKLKEIAKKLNAEQVEEKDGEVIIRFKTPEQAERALKEAEKLGAEVEL [V29Q]
Given back: 4.76

Asked: // same read-out, input: EVIELKIKFKTPEQREKLKEIAKKLNAEVVEEKDGEVIIRFKTPQQAERALKEAEKLGAEVEL [E45Q]
Given back: 4.38
